System: K562
PROTOCOL SUMMARY: NCI tumour cell line growth inhibition, 48 h
Calls of active or inactive are those of the source. Cut-off read from the data, not from the text of the source: active = GI50 up to about 1.1 µM and inactive = higher.
ASSAY METRIC: GI50

The examples below pair each entry with its known result.
# COMPOUND, MEASURED TARGET, RESULT
rows = [
    ("CC(=O)n1nc(-c2nc3ccccc3nc2Cl)cc1Cl", "K562", "3.61 µM (inactive)"),
    ("CCOC(=O)N1c2c(c3ccccc3n2C(=O)OCC)C(=O)C(OC)N1C(=O)OCC (stereo not drawn)", "K562", "21.1 µM (inactive)"),
]

Now, please, on to the next compound.
Q) Quick check: GI50 of Cc1nnc2n1N=C(c1cc(F)c(Cl)cc1Cl)/C(=C/c1ccc(Cl)cc1)S2 ?
A) 17.5 µM (inactive)
